# TARGET SYSTEM: P-selectin (Homo sapiens, UniProt P16109)
# Construct: P-selectin is isolated from human platelet lysates
# Sequence (P16109 42-830): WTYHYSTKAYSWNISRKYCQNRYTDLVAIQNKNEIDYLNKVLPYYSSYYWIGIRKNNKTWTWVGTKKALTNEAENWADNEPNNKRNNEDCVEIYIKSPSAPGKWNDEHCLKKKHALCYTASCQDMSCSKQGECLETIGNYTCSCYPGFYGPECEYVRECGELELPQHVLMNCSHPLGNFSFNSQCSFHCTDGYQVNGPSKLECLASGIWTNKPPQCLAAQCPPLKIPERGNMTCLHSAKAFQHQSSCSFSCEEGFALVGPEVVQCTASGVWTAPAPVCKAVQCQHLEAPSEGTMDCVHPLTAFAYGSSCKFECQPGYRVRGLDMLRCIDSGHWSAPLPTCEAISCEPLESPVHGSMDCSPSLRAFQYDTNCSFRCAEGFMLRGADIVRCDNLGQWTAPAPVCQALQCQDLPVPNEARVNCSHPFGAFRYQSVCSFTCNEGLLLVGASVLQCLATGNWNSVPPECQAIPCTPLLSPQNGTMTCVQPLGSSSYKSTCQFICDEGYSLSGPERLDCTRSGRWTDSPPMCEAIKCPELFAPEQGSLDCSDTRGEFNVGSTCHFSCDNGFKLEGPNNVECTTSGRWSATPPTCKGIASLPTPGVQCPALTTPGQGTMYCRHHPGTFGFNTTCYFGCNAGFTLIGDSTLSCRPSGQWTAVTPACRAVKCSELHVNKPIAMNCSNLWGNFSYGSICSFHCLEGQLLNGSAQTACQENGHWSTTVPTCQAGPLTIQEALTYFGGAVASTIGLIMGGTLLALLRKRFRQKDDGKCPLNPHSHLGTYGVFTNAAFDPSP
# PROTOCOL TEXT: Inhibition of human neutrophil adhesion to purified P-selectin immobilized on plastic wells
# CONDITION INFO: inhibiting the binding of human neutrophils to P-selectin
Where a SMILES comes first, the peptide text is derived from it. Bridges are numbered along the chain shown (N, C = ends). [ ]: non-standard residue; d: D form. The star is where a group is joined. NHBu = CCCCN*
The entries below come with measured IC50 values attached.
The response must be a number in µM with no trailing unit.

{"MOLECULE": "C[C@H](O)[C@@H](NC(=O)[C@@H](Cc1c[nH]c2ccccc12)NC(=O)[C@H]1CSSC[C@@H](NC(=O)[C@@H](CCCCN)NC(=O)[C@H](N)CCCNC(=N)N)C(=O)NCC(=O)NCC(=O)N1)C(=O)N[C@H](Cc1c[nH]c2ccccc12)C(N)=O [(8)] (H-[dR][dK][dC]GG[dC][dW][dT][dW]-NH2; disulfide 3-6)", "TARGET SYSTEM": "P-selectin (Homo sapiens, UniProt P16109)", "IC50 (µM)": 97}
{"MOLECULE": "CCCCNC(=O)[C@H](CCC(N)=O)NC(=O)[C@@H](Cc1c[nH]c2ccccc12)NC(=O)[C@H](NC(=O)[C@@H](Cc1c[nH]c2ccccc12)NC(=O)[C@H]1CSSC[C@@H](NC(=O)[C@@H](CCCCN)NC(=O)[C@H](N)CCCNC(=N)N)C(=O)NCC(=O)N[C@@H](Cc2ccccc2)C(=O)N1)[C@H](C)O [(102)] (H-[dR][dK][dC]GF[dC][dW][dT][dW]Q-NHBu; disulfide 3-6)", "TARGET SYSTEM": "P-selectin (Homo sapiens, UniProt P16109)", "IC50 (µM)": 8}

Would you kindly look at the next entry?
For P-selectin (Homo sapiens, UniProt P16109), provide IC50 of CC(C)[C@@H](NC(=O)[C@@H](Cc1c[nH]cn1)NC(=O)[C@H](NC(=O)[C@@H](Cc1c[nH]c2ccccc12)NC(=O)[C@H]1CSSC[C@@H](NC(=O)[C@@H](CCCCN)NC(=O)[C@H](N)CCCNC(=N)N)C(=O)NCC(=O)N[C@@H](Cc2ccccc2)C(=O)N1)[C@H](C)O)C(N)=O [(61)] (H-[dR][dK][dC]GF[dC][dW][dT][dH][dV]-NH2; disulfide 3-6) please.
65.4
